Target: T1, Rhesus monkey glycophorin A on Rhesus monkey red blood cells (Rhesus monkey, UniProt A0A1D5Q349 20-150)
T1 construct: whole, on cells; also called Rhesus RBC; monkey GPA
T1 sequence: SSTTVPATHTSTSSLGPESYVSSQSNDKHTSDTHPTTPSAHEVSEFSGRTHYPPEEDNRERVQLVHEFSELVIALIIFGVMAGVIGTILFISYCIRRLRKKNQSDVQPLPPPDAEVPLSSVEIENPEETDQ
Assay: FACS, RBC Rh03

| Binder | fluorescence intensity |
| --- | --- |
| Hu6C12-11 (antibody, V domains shown, IgG format; VH.1b + Vk.1a) VH: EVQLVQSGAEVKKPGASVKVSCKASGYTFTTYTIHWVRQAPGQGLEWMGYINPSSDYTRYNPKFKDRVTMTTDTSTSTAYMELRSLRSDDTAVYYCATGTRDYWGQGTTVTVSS VL: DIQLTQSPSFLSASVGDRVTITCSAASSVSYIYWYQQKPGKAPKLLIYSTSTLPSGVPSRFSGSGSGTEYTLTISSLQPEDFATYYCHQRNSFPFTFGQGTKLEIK | 1420 |
| Hu6C12-9 (antibody, V domains shown, IgG format; VH.1 + Vk.1a) VH: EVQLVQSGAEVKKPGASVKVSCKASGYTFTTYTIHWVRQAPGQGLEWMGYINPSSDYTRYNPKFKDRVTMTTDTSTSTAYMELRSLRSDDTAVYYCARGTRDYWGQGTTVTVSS VL: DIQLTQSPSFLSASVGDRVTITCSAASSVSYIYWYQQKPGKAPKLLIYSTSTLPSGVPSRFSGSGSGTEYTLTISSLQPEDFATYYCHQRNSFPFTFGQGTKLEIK | 1050 |
| Hu6C12-23 (antibody, V domains shown, IgG format; VH.1f + Vk.1b) VH: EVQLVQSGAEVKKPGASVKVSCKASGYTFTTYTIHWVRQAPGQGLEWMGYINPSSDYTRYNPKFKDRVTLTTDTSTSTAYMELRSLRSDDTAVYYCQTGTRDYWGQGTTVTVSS VL: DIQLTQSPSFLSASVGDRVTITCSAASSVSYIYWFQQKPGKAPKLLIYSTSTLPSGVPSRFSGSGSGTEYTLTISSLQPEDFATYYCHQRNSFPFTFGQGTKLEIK | 1700 |

All figures here come from patent US20190359687A1.
